B1: Histone H1t, residues 44 to 112; numbered along this chain, P22492 (parent)
chain: VSKLITEALSVSQERVGMSLVALKKALAAAGYDVEKNNSRIKLSLKSLVNKGILVQTRGTGASGSFKLS

# Variants of: B1
# protocol-details: abundance fitness (aPCA) (normalised: wild type 0, dead -1); higher = more abundant; growth selection in yeast, the domain comes from the species named
# condition-description: Homo sapiens
Binary call on abundance fitness: satisfied from -0.06 upward, not satisfied beneath that.

Known results for variants:
VSKLITEALSVSQERVGMSLVALKKAKAAAGYDVEKNNSRIKLSLKSLVNKGILVQTRGTGASGSFKLS | not satisfied
VSKLITEALSVSQERVGMSLVALKKALAAAGYDVEKNNSRIKLSLKSLVNKGILVQTRGTGASDSFKLS | satisfied
VSKLITEALSVSQERVGMSLVALKKALAAAGYDVEKNNSRIKLSLKSLVNKGILVQTHGTGASGSFKLS | satisfied

Read the next record carefully.
Ask: Item `VSKLITEALSVSQERVGMSLVALKKALAAAGYDVEKNNSRIKLSLKSLLNKGILVQTRGTGASGSFKLS` with abundance fitness of -0.06 or above?
Result: satisfied
